src = patent US7652006B2

Can you tell me melting point for the items I'm about to list?

Give the value of melting point reported for the following: CC(C)n1c(=O)nc(-c2ccc3c(c2)CCC3)c2cc3c(cc21)OCO3
73 to 75 °C

Give the value of melting point reported for the following: NCCOc1nc(-c2ccc3c(c2)OCO3)c2cc3c(cc2n1)OCO3
162 to 167 °C

Give the value of melting point reported for the following: CC(C)n1c(=O)nc(-c2ccc3c(c2)OCCO3)c2cc3c(cc21)OCO3
214 to 217 °C

Give the value of melting point reported for the following: CC(C)n1c(=O)nc(-c2ccc3c(c2)OC(F)(F)O3)c2cc3c(cc21)OCO3
243 to 245 °C

Give the value of melting point reported for the following: O=c1nc(-c2ccccc2)c2cc3c(cc2[nH]1)OCO3
351 to 354 °C

Give the value of melting point reported for the following: CC(C)n1c(=O)nc(-c2ccc3ocnc3c2)c2cc3c(cc21)OCO3
241 to 243 °C

Give the value of melting point reported for the following: c1nc(-c2ccc3c(c2)OCO3)c2cc3c(cc2n1)OCO3
180 to 185 °C

Give the value of melting point reported for the following: CC(CN(C)C)Oc1nc(-c2ccc3c(c2)OCO3)c2cc3c(cc2n1)OCO3 (stereo not shown)
172 to 175 °C

Give the value of melting point reported for the following: CC(C)n1c(=O)nc(-c2ccc3ccccc3c2)c2cc3c(cc21)OCO3
213 to 215 °C

Give the value of melting point reported for the following: CC(C)n1c(=O)nc(-c2cnc3ccccc3c2)c2cc3c(cc21)OCO3
279 to 281 °C

* * *

Can you tell me melting point for the items I'm about to list?

Give the value of melting point reported for the following: Cn1ccnc1SCc1nc(-c2ccc3c(c2)OCO3)c2cc3c(cc2n1)OCO3
155 to 160 °C

Give the value of melting point reported for the following: CN(C)CCn1c(=O)nc(-c2ccc3c(c2)OCCO3)c2cc3c(cc21)OCO3
220 to 225 °C

Give the value of melting point reported for the following: O=c1nc(-c2ccc3c(c2)OCO3)c2cc3c(cc2[nH]1)OCO3
> 300 °C

Give the value of melting point reported for the following: CCCn1c(=O)oc2cc3c(-c4ccc5c(c4)OCO5)nc(=O)n(C(C)C)c3cc21
110 to 145 °C

Give the value of melting point reported for the following: c1ccc(-c2nc(-c3ccc4c(c3)OCO4)c3cc4c(cc3n2)OCO4)cc1
225 to 230 °C

Give the value of melting point reported for the following: Cn1c(=O)nc(-c2ccccc2)c2cc3c(cc21)OCO3
253 to 255 °C

Give the value of melting point reported for the following: c1cc2c(cc1-c1nc(OCC3CC3)nc3cc4c(cc13)OCO4)OCO2
175 to 182 °C

* * *

OBSERVABLE: melting point

Give the value of melting point reported for the following: COc1nc(-c2ccc3c(c2)OCO3)c2cc3c(cc2n1)OCO3
216 to 223 °C

Give the value of melting point reported for the following: c1cn(Cc2nc(-c3ccc4c(c3)OCO4)c3cc4c(cc3n2)OCO4)cn1
182 to 185 °C

Give the value of melting point reported for the following: c1cn(CCc2nc(-c3ccc4c(c3)OCO4)c3cc4c(cc3n2)OCO4)cn1
160 to 163 °C

Give the value of melting point reported for the following: CC(CN(C)C)On1c(=O)nc(-c2ccc3c(c2)OCO3)c2cc3c(cc21)OCO3 (stereo not shown)
160 to 165 °C

Give the value of melting point reported for the following: CC(=O)OCc1nc(-c2ccc3c(c2)OCO3)c2cc3c(cc2n1)OCO3
144 to 147 °C

Give the value of melting point reported for the following: c1ncn(Cc2nc(-c3ccc4c(c3)OCO4)c3cc4c(cc3n2)OCO4)n1
195 to 198 °C

Give the value of melting point reported for the following: CC(C)n1c(=O)nc(-c2ccc(N(C)C)cc2)c2cc3c(cc21)OCO3
240 to 245 °C

Give the value of melting point reported for the following: CC(C)n1c(=O)nc(-c2cc3c(cc2Cl)OCO3)c2cc3c(cc21)OCO3
147 to 150 °C

Give the value of melting point reported for the following: CN(C)CCn1c(=O)nc(-c2ccc3c(c2)OCO3)c2cc3c(cc21)OCO3
175 to 182 °C

Give the value of melting point reported for the following: C#CCn1c(=O)nc(-c2ccc3c(c2)OCO3)c2cc3c(cc21)OCO3
235 to 240 °C
